# target_or_test_system: Aβ42 (Homo sapiens, UniProt P05067)
# Sequence (P05067 672-713): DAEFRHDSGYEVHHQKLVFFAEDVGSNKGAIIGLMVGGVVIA
# protocol_notes: Th-T (thioflavin-T) assay of Aβ42 aggregation
# Type: biochemical
# assay_context: column suffix _10; reading M103
Note to self: values exactly at 3 are t. So Fig. 7a Th-T reading, mean of three wells at or above 3 is t, below is f.

Solved cases (4 shown):
# compound, target_or_test_system, assigned_class
rows = [
    ("C=C1CCC2C(C)(CCC=C(C)C)C(O)CCC2(C)C1Cc1c(OC)oc(CO)c(C(=O)OC)c1=O (centres unmarked)", "Aβ42 (Homo sapiens, UniProt P05067)", "f"),
    ("C=C1CC[C@@H]2[C@](C)(CC[C@H]3O[C@H](C=C(C)C)C[C@@]23C)[C@@H]1Cc1c(OC)oc(CO)c(C(=O)OC)c1=O", "Aβ42 (Homo sapiens, UniProt P05067)", "f"),
    ("C=C1CCC2C(C)(CCC=C(C)C)C(O)CCC2(C)C1Cc1c(OC)oc(C)c(C(=O)OC)c1=O (centres unmarked)", "Aβ42 (Homo sapiens, UniProt P05067)", "f"),
    ("C=C1CC[C@@H]2[C@](C)(CC[C@H]3O[C@H](C=C(C)C)C[C@@]23C)[C@@H]1Cc1c(OC)oc(CO)c(C)c1=O", "Aβ42 (Homo sapiens, UniProt P05067)", "t"),
]

Q: Given C=C1CCC2C(C)(CCC=C(C)C)C(O)CCC2(C)C1Cc1c(OC)oc(CO)c(C)c1=O (centres unmarked) , state whether its Fig. 7a Th-T reading, mean of three wells is at least 3.
A: f
